Tested on: HepG2
assay-overview: Cytotoxicity against human HepG2 cells incubated for 24 hrs by WST1 dye reduction assay
experimental-conditions: HepG2, 24 h
Listing of entries alongside the reported IC50.
reported-endpoint: IC50 (µM)

INSERT INTO results (molecule, measured_result) VALUES
  ('C[S+]([O-])CCCCN=C=S (configuration not stated)', 24.9),
  ('S=C=NCCc1ccccn1', 15.3);

Recorded values, source ChEMBL document CHEMBL2177083.
